- measurementDescription: Half life in Sprague-Dawley rat at 1 mg/kg, iv
- Format: ADME, organism-based
- Set-up: dose 1 mg/kg, route intravenous
- conditionNotes: in vivo
readoutLabel: half-life (h)

Observe how each entry below is paired with its result.
Query :: Which half-life is reported for this compound? Cc1nc(NC(=O)N2CCC[C@H]2C(N)=O)sc1-c1ccnc(C(C)(C)C)c1
Result :: 3.4

Query :: Requested read-out: half-life. Entry: Cc1nc(NC(=O)N2CCC[C@H]2C(N)=O)sc1-c1ccnc(C2(C)CC2)n1
Result :: 1.7

(P) Cc1nc(NC(=O)N2CCC[C@H]2C(N)=O)sc1-c1ccnc(C(C)(C)C)n1
(Q) Cc1nc(NC(=O)N2CCC[C@H]2C(N)=O)sc1-c1ccnc(C(C)(C)C(F)(F)F)c1 [ALPELISIB]
Query :: For the pair P and Q , which member has the lower half-life number? Mark your answer with the label of the selected entry.
Result :: P
(P: 1.2 h, Q: 2.9 h)
